The origin of these recorded values is paper PMC10349056.

- MEASUREMENT_TARGET: T1, FGFR2 kinase domain, phosphorylation state pY4 (UniProt P21802-3 465-764, Y658F (worked out from the printed order of phosphorylation) | Y734F (worked …, phosphotyrosine at 657, 587, 467 and 589))
- T1 construct: FGFR2 (IIIb isoform) kinase domain, residues 465-764; numbers count on: FGFR2IIIb (C1 isoform, 822 residues); also called KD^pY4; source: E. coli BL21(DE3), purified (Talon, Superdex 75)
- T1 sequence (P21802 464-763 Y657F/Y733F): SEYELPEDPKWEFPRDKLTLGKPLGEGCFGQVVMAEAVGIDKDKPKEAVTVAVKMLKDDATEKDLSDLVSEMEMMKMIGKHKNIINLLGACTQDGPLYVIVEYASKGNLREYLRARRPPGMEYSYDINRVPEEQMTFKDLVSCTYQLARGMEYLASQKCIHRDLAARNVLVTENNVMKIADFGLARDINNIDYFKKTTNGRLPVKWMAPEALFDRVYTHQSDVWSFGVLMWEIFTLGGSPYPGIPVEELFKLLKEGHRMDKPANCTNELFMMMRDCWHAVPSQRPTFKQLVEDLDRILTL
- ASSAY_METHOD_TEXT: MST; JM labelled with Atto 488, serial dilutions of KD titrated, 25 °C; 20 mM HEPES, 150 mM NaCl, 1 mM TCEP, 0.01% Tween 20, pH 7.5; the text calls the constant of KD^pY1 apparent (Kd,app)
- CONDITION_NOTES: both partners purified
Where no end group is shown, it is not given here.

| BINDER | Kd (µM) |
| --- | --- |
| FGFR2 juxtamembrane region (407-462), labelled with Atto 488 (peptide, UniProt P21802-3 407-462, looked up, also: labelled with Atto 488, FGFR2 (IIIb isoform) juxtamembrane region, residues 407-462; numbers count on: FGFR2IIIb (C1 isoform, 822 residues); also called JM; 407Juxtamembrane region462; source: synthetic peptide, bought: Genscript) KPDFSSQPAVHKLTKRIPLRRQVTVSAESSSSMNSNTPLVRITTRLSSTADTPMLA | 10.2 |
